# tested.system: Mouse ACVR2A (mouse, UniProt P27038 20-135, limits assumed); also: test concentration or dose not given here
# Sequence (P27038 20-135 limits assumed): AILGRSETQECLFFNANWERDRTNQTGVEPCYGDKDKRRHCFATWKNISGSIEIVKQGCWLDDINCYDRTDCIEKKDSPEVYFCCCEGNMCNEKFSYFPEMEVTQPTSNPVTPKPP
# assay.notes: ELISA
# reported optical density; entries follow
Write the answer as a number in OD, unit excluded.

binder	property.name	unit.of.measurement	assay.result
374_E01 (antibody, V domains shown) VH: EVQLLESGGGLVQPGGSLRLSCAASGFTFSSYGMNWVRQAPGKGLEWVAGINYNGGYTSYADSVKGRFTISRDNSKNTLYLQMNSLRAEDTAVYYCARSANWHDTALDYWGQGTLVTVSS VL: DIQMTQSPSSLSASVGDRVTITCRASQSISSYVNWYQQKPGKAPKLLIYAATSRASGVPSRFSGSGSGTDFTLTISSLQPEDFATYYCQQSYSTPLTFGGGTKVEIK	optical density	OD	3.56

// next entry
Param item = 369_D12 (antibody, V domains shown) VH: EVQLLESGGGLVQPGGSLRLSCAASGFTFDSYSMNWVRQAPGKGLEWVAGINYNSGYTSYADSVKGRFTISRDNSKNTLYLQMNSLRAEDTAVYYCARSANWHDTALDYWGQGTLVTVSS VL: DIQMTQSPSSLSASVGDRVTITCRASQSILSYLNWYQQKPGKAPKLLIYAATSLASGVPSRFSGSGSGTDFTLTISSLQPEDFATYYCQQSYDTPLTFGGGTKVEIK ; retrieve measured optical density.
3.1
